These measurements were taken from ChEMBL document CHEMBL1201862.

# Test system: RPMI-8226
# run.description: NCI tumour cell line growth inhibition, 48 h
The source made the active and inactive calls. No stated cut-off is given here; in the data, active = GI50 up to about 1.1 µM and inactive = higher.
Select the matching outcome among 1 (yes) = active, 0 (no) = inactive

input: Hi, do you know how `CC(=O)O[C@H]1CC[C@@]2(C)C(=CC[C@@H]3[C@@H]2CC[C@]2(C)Nc4c(cnn4S(C)(=O)=O)C[C@@H]32)C1` came out in this test?
output: 0 (no)

input: Same question, `COc1cc(C(=O)Nc2cc(C(N)=O)cc(OC)c2OC)cc(NC(=O)/C=C/c2ccccc2)c1OC` this time
output: 0 (no)

input: Same question, CN(C)CCCNc1ncnc2c1ncn2C1OC(CO)C(O)C1O (stereo not given) this time
output: 0 (no)

input: Same question, `COc1ccc2[nH]c3c(C)c4cnccc4c(C)c3c2c1` this time
output: 0 (no)

input: Same question, CCOC(=O)C(CS)NC(=O)CCCCCCCC(=O)O (stereo not given) this time
output: 0 (no)

input: Same question, `Nc1nc(SCc2ccccc2Cl)c2[nH]cnc2n1` this time
output: 0 (no)

input: Same question, C=C(N=[N+]=[N-])c1cn(C2CC(O)C(CO)O2)c(=O)[nH]c1=O (stereo not given) this time
output: 0 (no)

input: Same question, O=c1cc(CO)oc2c3c(cc(O)c12)OCC(COC1OC(CO)C(O)C(O)C1O)=CC3 (stereo not given) this time
output: 0 (no)

input: Same question, CC(NC(=O)OCc1ccccc1)NC(=O)OC(C)(C)C (stereo not given) this time
output: 0 (no)

input: Same question, `COc1cc(/C=C/c2cc(=O)cc(/C=C/c3ccc(O)c(OC)c3)o2)ccc1O` this time
output: 1 (yes)

input: Same question, CC1(C(=O)O)CCCC1C(=O)O (stereo not given) this time
output: 0 (no)

input: Same question, Nc1nc(=O)[nH]c2c1cnn2C1CCCCO1 (stereo not given) this time
output: 0 (no)

input: Same question, `COc1cc(Cl)c2c3c(c(C(=O)c4ccccc4)oc13)CCC2` this time
output: 0 (no)

input: Same question, `CC1=[N+]([O-])C(C)(C)N(N=O)C1(C)C` this time
output: 0 (no)

input: Same question, C[C@H](CCc1nc(C#N)c(N)o1)[C@H]1CC[C@H]2[C@@H]3CCC4C[C@@H](O)CC[C@]4(C)[C@H]3C[C@@H](O)[C@]12C (stereo not given in full) this time
output: 0 (no)
